Entries and their measured MFI (PD-L2-FITC) follow.
ASSAYED SYSTEM: T1, human PD-1 on cells (human, UniProt Q15116 25-288)
T1 construct: also called human PD-1 on CHO cells
T1 sequence (Q15116 25-288 limits assumed): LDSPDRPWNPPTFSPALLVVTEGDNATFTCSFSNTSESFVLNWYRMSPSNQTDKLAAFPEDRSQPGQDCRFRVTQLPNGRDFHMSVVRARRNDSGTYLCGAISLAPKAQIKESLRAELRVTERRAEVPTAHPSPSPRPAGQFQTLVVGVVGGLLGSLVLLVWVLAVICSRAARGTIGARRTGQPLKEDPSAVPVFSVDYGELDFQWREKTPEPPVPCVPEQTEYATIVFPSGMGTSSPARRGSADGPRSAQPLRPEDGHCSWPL
ASSAY DETAILS: flow cytometry blocking assay, 100 nM antibody on CHO cells with human PD-1, then PD-L2-FITC (remaining ligand signal)
The response must be a number in MFI with no trailing unit.

Task: Entry xd-16 B, IgG1 format expressed in yeast (antibody, V domains shown, Tested as IgG1 expressed in yeast; also called Antibody B) VH: QVQLVQSGAEVKKPGSSVKVSCKASGGTFSSTAISWVRQAPGQGLEWMGGIWPSFGTASYAQKFQGRVTITADESTSTAYMELSSLRSEDTAVYYCARAEYSSTGIFDYWGQGTLVTVSS VL: DIQMTQSPSSVSASVGDRVTITCRASQGISSWLAWYQQKPGKAPKLLISAASSLQSGVPSRFSGSGSGTDFTLTISSLQPEDFATYYCQQANHLPFTFGGGTKVEIK : reported MFI (PD-L2-FITC) = ?
Result: 26400

Continuing:
Task: State the recorded MFI (PD-L2-FITC) for this entry: xd-16 E, IgG1 format expressed in yeast (antibody, V domains shown, Tested as IgG1 expressed in yeast; also called Antibody E) VH: QVQLVQSGAEVKKPGSSVKVSCKASGGTFSSTAISWVRQAPGQGLEWMGGIWPSFGTANYARKFQGRVTITADESTSTAYMELSSLRSEDTAVYYCARAEYSSTGIFDYWGQGTLVTVSS VL: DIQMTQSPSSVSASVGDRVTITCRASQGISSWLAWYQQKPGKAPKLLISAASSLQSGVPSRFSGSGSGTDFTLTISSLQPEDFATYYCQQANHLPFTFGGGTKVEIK
Result: 40900

Task: Can you look up the measured MFI (PD-L2-FITC) of xd-16 D, IgG1 format expressed in yeast (antibody, V domains shown, Tested as IgG1 expressed in yeast; also called Antibody D) VH: QVQLVQSGAEVKKPGSSVKVSCKASGGTFSSTAISWVRQAPGQGLEWMGGIWPSFDTANYAQKFRGRVTITADESTSTAYMELSSLRSEDTAVYYCARAEYSSTGTFDYWGQGTLVTVSS VL: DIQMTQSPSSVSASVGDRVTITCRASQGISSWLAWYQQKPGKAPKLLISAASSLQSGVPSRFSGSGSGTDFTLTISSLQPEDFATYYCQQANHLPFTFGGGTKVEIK for me?
Result: 40000

Task: Recorded MFI (PD-L2-FITC) of xd-16 C, IgG1 format expressed in yeast (antibody, V domains shown, Tested as IgG1 expressed in yeast; also called Antibody C) VH: QVQLVQSGAEVKKPGSSVKVSCKASGGTFSSTAISWVRQAPGQGLEWMGGIWPSFGTASYAQKFRGRVTITADESTSTAYMELSSLRSEDTAVYYCARAEYSSTGTFDYWGQGTLVTVSS VL: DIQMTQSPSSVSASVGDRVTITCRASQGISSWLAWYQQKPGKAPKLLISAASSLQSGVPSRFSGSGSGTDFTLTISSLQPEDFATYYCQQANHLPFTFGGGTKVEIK , please.
Result: 26500

The reported measurements were obtained from patent US20190023792A1.
